- measurement.target: Estrogen receptor (Bos taurus) (UniProt Q9XSB5+P49884)
- settings: Uterus; Cytosol
measure.name: RBA1
API note: the answer field is a bare number with no unit suffix.

# molecular.string, RBA1
measured = [
    ("N#CC(=C(c1ccccc1)c1ccccc1)c1ccccc1", 0.04),
    ("CN(C)Cc1cc(/C(=C(\\C#N)c2ccccc2)c2ccc(O)cc2)ccc1O", 3.9),
    ("CC(C)Oc1ccc(/C(=C(\\C#N)c2ccccc2)c2ccc(O)cc2)cc1", 3),
    ("Cc1ccc(/C(=C(/C#N)c2ccc(O)cc2)c2ccc(O)cc2)cc1", 36),
]

From here, focus on the item given below.
Asked: Provide value of RBA1 for this record tested with Estrogen receptor (Bos taurus) (UniProt Q9XSB5+P49884): `Oc1ccc(C(=C2CCCCC2)c2ccc(O)cc2)cc1`
Given back: 26

----------
This section presents molecules with their documented RBA2 values.
- measurement.target: Estrogen receptor (Bos taurus) (UniProt Q9XSB5+P49884)
- settings: Uterus; Cytosol
- Description: Relative binding affinity against estrogen receptor in calf uterus cytosol using [3H]E2 as radioligand, incubated at 5 hours at 25 degree Centigrade.
Lab note: jot the number down without any unit.

# molecular.string, measure.name, experimental.result
rows = [
    ("N#CC(=C(c1ccc(O)cc1)c1ccc(O)cc1)c1ccc(O)cc1", "RBA2", 166),
    ("N#C/C(=C(/c1ccccc1)c1ccc(O)cc1)c1ccccc1", "RBA2", 36),
    ("N#CC(=C(c1ccccc1)c1ccccc1)c1ccc(O)cc1", "RBA2", 3.3),
]

Asked: What value of measured RBA2 is listed for `COc1ccc(C(=C(C#N)c2ccccc2)c2ccc(OC)cc2)cc1` ?
Given back: 0.04

Asked: Continue with `Cc1ccc(C(C#N)=C(c2ccc(O)cc2)c2ccc(O)cc2)cc1`
Given back: 93

Asked: Check `N#C/C(=C(\c1ccccc1)c1ccc(O)cc1)c1ccccc1` too.
Given back: 2.2

Asked: One more molecule: `CCN(CC)CCOc1ccc(C(=C(C#N)c2ccccc2)c2ccc(OCCN(CC)CC)cc2)cc1`
Given back: 0.4

Asked: Same question, `N#CC(=C(c1ccccc1)c1ccccc1)c1ccccc1` this time
Given back: 0.09

Asked: Now this one: `CC(C)Oc1ccc(/C(=C(\C#N)c2ccccc2)c2ccc(O)cc2)cc1`
Given back: 0.36

Asked: Quick one: `CC(C)Oc1ccc(C(=C(C#N)c2ccccc2)c2ccc(OC(C)C)cc2)cc1`
Given back: 0.01

----------
- measurement.target: Estrogen receptor (Bos taurus) (UniProt Q9XSB5+P49884)
- settings: Uterus; Cytosol
Form field: RBA1 (one value per entry).
Just the number, please, no unit attached.

Consider the following illustrative entries.
# molecular.string, measurement.target, measure.name, experimental.result
rows = [
    ("N#CC(=C(c1ccccc1)c1ccccc1)c1ccc(O)cc1", "Estrogen receptor (Bos taurus) (UniProt Q9XSB5+P49884)", "RBA1", 29),
    ("CC(C)Oc1ccc(/C(=C(/C#N)c2ccccc2)c2ccc(O)cc2)cc1", "Estrogen receptor (Bos taurus) (UniProt Q9XSB5+P49884)", "RBA1", 7.9),
    ("N#CC(=C(c1ccc(O)cc1)c1ccc(O)cc1)c1ccc(O)cc1", "Estrogen receptor (Bos taurus) (UniProt Q9XSB5+P49884)", "RBA1", 41),
    ("CCN(CC)CCOc1ccc(/C(=C(/C#N)c2ccccc2)c2ccc(O)cc2)cc1", "Estrogen receptor (Bos taurus) (UniProt Q9XSB5+P49884)", "RBA1", 126),
    ("CN(C)c1ccc(C(=C(C#N)c2ccccc2)c2ccc(N(C)C)cc2)cc1", "Estrogen receptor (Bos taurus) (UniProt Q9XSB5+P49884)", "RBA1", 0.12),
]

Asked: Given the entry `N#C/C(=C(/c1ccccc1)c1ccc(O)cc1)c1ccccc1` , report its measured RBA1.
Given back: 40

Asked: And what about the compound `Cc1ccc(/C(=C(\C#N)c2ccccc2)c2ccc(O)cc2)cc1` ?
Given back: 8.1

Asked: What do we get for `N#C/C(=C(/c1ccccc1)c1ccc(O)cc1)c1ccc(O)cc1` ?
Given back: 27

Asked: Now give it for `CCN(CC)CCOc1ccc(/C(=C(\C#N)c2ccccc2)c2ccc(O)cc2)cc1` too.
Given back: 3.6

Asked: Then what about the compound `CC(C)Oc1ccc(C(=C(C#N)c2ccccc2)c2ccc(OC(C)C)cc2)cc1` ?
Given back: 0.01
